// reported pKi per item
biological target: GST-Bc1-2 (Homo sapiens, UniProt P10415); assay: Time Resolved-Fluorescence Resonance Energy Transfer (TR-FRET) Bcl-2 binding assay with F-Bak peptide probe; details: GST-Bcl-2 1 nM, F-Bak probe 100 nM, Tb-anti-GST 1 nM; '<' = below limit of detection; read-out: TR-FRET Bcl-2 Binding Ki
Sequence (P10415 whole entry): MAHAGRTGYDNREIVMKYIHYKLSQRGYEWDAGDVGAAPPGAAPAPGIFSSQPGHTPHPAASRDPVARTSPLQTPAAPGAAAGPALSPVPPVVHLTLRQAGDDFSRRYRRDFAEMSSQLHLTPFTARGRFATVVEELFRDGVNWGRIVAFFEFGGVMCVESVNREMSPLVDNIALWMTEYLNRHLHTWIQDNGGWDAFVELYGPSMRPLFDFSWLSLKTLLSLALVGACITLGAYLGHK
pKi: −log10 of the molar value.
valueKind: pKi

INSERT INTO assay_data (compound, valuekind, endpointvalue) VALUES
  ('O=C(NS(=O)(=O)c1ccc(OCC2(F)CCOCC2)c(Cl)c1)c1ccc(N2CCN(CC3=C(c4ccc(Cl)cc4)CCC4(CCN(C5COC5)CC4)C3)CC2)cc1Oc1cnc2[nH]ccc2c1 [Example 325]', 'pKi', '> 11.00'),
  ('CC1(C)CCC(CN2CCN(c3ccc(C(=O)NS(=O)(=O)c4ccc(NC[C@@H]5CCN(C6COC6)C5)c([N+](=O)[O-])c4)c(Oc4cnc5[nH]ccc5c4)c3)CC2)=C(c2ccc(Cl)cc2)C1 [Example 209]', 'pKi', '> 11.00'),
  ('CC1(C)CCC(CN2CCN(c3ccc(C(=O)NS(=O)(=O)c4cnc(OCC5(F)CCN(CC(F)F)CC5)c(Cl)c4)c(Oc4cnc5[nH]ccc5c4)c3)CC2)=C(c2ccc(Cl)cc2)C1 [Example 285]', 'pKi', '> 11.00');
